The measurements presented in this section are drawn from patent US20070197538A1.

# target.of.assay: IGF1-R (Homo sapiens)
# Construct: host or cells: baculovirus system
# Sequence (P08069 31-1367): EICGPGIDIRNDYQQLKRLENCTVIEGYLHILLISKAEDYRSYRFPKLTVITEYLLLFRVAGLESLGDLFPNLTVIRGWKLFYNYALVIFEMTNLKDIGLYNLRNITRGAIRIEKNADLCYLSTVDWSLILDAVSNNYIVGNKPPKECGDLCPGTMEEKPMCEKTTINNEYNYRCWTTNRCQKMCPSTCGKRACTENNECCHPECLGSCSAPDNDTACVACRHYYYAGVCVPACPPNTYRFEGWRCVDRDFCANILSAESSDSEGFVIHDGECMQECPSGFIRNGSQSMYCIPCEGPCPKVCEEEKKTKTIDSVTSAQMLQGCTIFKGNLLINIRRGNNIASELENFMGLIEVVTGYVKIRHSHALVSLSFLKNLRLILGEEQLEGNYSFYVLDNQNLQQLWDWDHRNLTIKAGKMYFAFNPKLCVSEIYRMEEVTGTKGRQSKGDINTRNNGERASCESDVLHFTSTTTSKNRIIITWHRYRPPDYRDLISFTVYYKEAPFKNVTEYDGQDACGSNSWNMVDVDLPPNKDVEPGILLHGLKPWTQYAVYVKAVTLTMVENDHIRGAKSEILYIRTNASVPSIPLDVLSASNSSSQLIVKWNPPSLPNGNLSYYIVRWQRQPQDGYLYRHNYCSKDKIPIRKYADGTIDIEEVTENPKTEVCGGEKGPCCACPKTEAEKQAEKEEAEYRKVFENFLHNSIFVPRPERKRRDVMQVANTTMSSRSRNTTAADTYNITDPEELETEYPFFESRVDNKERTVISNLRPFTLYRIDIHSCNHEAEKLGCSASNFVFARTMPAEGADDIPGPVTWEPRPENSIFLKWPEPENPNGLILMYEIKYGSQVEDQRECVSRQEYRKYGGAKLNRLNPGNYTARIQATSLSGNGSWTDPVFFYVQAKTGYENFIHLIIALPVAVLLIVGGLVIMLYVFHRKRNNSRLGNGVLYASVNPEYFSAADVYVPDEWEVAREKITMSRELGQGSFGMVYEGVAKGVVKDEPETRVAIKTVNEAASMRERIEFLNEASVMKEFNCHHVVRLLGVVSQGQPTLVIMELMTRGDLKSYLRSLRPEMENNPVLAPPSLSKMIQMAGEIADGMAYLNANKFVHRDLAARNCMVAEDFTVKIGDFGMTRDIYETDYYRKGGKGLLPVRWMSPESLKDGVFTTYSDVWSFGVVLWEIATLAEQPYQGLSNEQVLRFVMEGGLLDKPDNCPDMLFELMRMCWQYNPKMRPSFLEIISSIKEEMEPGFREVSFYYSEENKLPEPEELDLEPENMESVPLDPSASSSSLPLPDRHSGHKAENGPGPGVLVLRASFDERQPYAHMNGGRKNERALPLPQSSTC
# protocol.text: recombinant kinase transphosphorylation (33P-ATP) profiling, IGF1-R
# Format: biochemical
# measurement.conditions: 10 concentrations, n=1
outcome.measure: IC50

Lab book: IC50 of COc1cc2ncc(N[C@H]3CC[C@H](O)CC3)nc2cc1OC [GN963] noted as > 10000 nM

====

# target.of.assay: VEGF-R2 (Homo sapiens, UniProt P35968)
# Construct: host or cells: baculovirus system
# protocol.text: recombinant kinase transphosphorylation (33P-ATP) profiling, VEGF-R2
# Assay type: biochemical
# measurement.conditions: 10 concentrations, n=1
outcome.measure: IC50

The reported value for COc1cc2ncc(N[C@H]3CC[C@H](O)CC3)nc2cc1OC [GN963] in terms of IC50 is > 10000 nM

====

# target.of.assay: Abl-1 (Homo sapiens)
# Construct: host or cells: baculovirus system
# protocol.text: recombinant kinase transphosphorylation (33P-ATP) profiling, Abl-1
# Type: biochemical
# measurement.conditions: 10 concentrations, n=1
outcome.measure: IC50 (nM)
# number only, unit nM dropped from output

Form field IC50 for item "COc1cc2ncc(N[C@H]3CC[C@H](O)CC3)nc2cc1OC" on Abl-1 (Homo sapiens): 13000

====

# target.of.assay: FGR (Homo sapiens)
# Construct: host or cells: baculovirus system
# Sequence (P09769 whole entry): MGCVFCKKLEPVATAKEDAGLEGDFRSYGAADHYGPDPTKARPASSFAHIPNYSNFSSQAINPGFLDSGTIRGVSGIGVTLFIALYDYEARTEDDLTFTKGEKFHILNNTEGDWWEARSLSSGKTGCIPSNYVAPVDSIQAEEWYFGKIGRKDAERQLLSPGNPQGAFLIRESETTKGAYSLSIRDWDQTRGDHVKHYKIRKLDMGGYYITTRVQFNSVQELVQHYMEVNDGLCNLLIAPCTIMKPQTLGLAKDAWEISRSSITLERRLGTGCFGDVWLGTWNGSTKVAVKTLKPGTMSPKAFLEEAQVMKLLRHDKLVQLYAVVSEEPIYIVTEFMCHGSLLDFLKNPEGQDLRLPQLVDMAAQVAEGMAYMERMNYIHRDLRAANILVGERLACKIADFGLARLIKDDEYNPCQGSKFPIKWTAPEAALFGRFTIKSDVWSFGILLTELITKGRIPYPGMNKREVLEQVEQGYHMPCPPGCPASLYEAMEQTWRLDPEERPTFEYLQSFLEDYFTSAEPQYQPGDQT
# protocol.text: recombinant kinase transphosphorylation (33P-ATP) profiling, FGR
# Format: biochemical
# measurement.conditions: 10 concentrations, n=1
outcome.measure: IC50
Just so you know, I need the unit written after the number.

Value of IC50 reported for the compound COc1cc2ncc(N[C@H]3CC[C@H](O)CC3)nc2cc1OC [GN963] is 17000 nM

====

# target.of.assay: Met (Homo sapiens, UniProt P08581)
# Construct: host or cells: baculovirus system
# Sequence (P08581 25-1390): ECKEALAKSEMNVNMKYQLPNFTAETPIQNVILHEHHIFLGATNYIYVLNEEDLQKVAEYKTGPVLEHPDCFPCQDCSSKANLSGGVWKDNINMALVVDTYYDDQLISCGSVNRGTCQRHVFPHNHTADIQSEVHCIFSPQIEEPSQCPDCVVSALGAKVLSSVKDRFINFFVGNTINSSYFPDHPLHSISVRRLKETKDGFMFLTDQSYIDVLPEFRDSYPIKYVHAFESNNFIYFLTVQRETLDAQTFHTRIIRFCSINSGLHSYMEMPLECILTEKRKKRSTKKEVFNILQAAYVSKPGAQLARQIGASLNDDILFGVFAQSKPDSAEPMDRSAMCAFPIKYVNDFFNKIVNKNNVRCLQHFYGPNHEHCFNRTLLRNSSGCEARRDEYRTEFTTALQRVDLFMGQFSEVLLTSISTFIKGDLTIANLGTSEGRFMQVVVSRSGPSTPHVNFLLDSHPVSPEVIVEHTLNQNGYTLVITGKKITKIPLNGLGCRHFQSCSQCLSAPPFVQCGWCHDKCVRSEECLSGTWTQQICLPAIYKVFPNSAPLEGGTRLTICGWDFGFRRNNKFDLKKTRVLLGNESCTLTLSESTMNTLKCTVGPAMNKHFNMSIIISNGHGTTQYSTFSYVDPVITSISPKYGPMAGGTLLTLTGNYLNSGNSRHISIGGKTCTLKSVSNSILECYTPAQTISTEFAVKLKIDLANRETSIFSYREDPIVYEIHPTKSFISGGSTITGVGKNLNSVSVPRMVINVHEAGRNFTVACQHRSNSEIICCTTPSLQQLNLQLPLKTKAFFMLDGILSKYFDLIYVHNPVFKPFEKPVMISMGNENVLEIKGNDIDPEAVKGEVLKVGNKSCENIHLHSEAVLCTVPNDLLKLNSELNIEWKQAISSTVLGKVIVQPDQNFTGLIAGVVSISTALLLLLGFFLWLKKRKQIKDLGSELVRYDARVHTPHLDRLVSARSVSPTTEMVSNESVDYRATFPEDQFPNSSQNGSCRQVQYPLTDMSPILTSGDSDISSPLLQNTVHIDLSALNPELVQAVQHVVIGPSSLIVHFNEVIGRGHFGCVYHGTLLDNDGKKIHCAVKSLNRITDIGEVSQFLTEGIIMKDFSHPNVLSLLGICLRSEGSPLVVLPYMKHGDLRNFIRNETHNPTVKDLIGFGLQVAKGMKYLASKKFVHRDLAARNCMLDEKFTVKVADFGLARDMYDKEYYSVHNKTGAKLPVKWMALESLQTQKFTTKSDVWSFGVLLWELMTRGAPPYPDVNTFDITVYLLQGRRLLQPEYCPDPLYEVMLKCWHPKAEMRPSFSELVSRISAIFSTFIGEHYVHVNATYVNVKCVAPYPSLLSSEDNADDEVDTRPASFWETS
# protocol.text: recombinant kinase transphosphorylation (33P-ATP) profiling, Met
# Format: biochemical
# measurement.conditions: 10 concentrations, n=1
outcome.measure: IC50

Value (IC50, Met (Homo sapiens, UniProt P08581)) for record "COc1cc2ncc(N[C@H]3CC[C@H](O)CC3)nc2cc1OC" = > 10000 nM

====

# target.of.assay: VEGF-R1 (Homo sapiens, UniProt P17948)
# Construct: host or cells: baculovirus system
# Sequence (P17948 27-1338): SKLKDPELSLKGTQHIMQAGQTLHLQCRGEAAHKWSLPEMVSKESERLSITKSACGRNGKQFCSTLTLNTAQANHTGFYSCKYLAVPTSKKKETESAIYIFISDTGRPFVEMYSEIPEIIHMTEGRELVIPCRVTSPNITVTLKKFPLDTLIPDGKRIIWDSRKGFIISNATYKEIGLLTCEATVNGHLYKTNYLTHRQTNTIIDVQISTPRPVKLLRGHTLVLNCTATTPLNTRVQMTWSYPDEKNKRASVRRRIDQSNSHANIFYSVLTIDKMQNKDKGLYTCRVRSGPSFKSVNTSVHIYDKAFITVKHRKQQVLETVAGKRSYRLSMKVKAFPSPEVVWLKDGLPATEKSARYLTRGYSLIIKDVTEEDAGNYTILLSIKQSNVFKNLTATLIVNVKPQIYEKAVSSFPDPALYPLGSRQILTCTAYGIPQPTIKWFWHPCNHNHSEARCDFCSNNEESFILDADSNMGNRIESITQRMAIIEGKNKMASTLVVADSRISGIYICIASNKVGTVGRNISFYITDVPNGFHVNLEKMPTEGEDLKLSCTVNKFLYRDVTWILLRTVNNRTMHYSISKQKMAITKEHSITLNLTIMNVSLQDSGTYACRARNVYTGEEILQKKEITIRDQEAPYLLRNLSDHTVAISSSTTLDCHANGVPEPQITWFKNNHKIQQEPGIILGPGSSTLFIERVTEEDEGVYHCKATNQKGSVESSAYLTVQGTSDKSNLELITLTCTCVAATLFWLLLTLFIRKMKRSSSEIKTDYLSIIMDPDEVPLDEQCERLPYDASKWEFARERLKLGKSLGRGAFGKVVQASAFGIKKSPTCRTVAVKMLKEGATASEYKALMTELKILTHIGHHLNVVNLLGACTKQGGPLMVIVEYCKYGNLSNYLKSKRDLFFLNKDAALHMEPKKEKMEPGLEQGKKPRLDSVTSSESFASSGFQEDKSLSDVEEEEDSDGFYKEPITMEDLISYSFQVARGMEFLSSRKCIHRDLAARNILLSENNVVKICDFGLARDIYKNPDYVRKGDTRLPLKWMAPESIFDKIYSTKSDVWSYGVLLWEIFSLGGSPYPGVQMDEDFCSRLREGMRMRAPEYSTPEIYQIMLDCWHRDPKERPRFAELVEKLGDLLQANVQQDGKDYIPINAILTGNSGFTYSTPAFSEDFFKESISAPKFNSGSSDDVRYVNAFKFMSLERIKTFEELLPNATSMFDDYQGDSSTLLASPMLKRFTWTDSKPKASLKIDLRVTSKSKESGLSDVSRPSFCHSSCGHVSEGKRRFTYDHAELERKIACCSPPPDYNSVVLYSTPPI
# protocol.text: recombinant kinase transphosphorylation (33P-ATP) profiling, VEGF-R1
# Type: biochemical
# measurement.conditions: 10 concentrations, n=1
outcome.measure: IC50

The reported IC50 value, VEGF-R1 (Homo sapiens, UniProt P17948), for "COc1cc2ncc(N[C@H]3CC[C@H](O)CC3)nc2cc1OC" reads > 10000 nM

====

Structures can show the parent of a compound that is named as a salt.
For each of the molecules below, state its melting point.

Record "COc1cc2ncc(OC3CCCCC3)nc2cc1OC1CCCCC1" , field melting point: 75 to 78 °C

Notebook: COc1cc2ncc(CNC3CCCCC3)nc2cc1OC (as salt: HCl) , melting point read as 185 to 190 °C (dec.)

For record "COc1cc2ncc(NC3CCCCC3)nc2cc1N1CCOCC1" the listed melting point is 194 to 196 °C

Value of measured melting point for the entry "c1ccc(Nc2cnc3cc(O[C@@H]4CCOC4)ccc3n2)cc1" : 173 to 175 °C

molecule "COc1cc2ncc(N[C@H]3CC[C@H](OC(C)=O)CC3)nc2cc1OC" , melting point observed: 176 to 177 °C

get_value(item= "CC(C)Oc1ccc2nc(Nc3ccccc3)cnc2c1.Cl" , readout=melting point) returns 205 to 210 °C (dec.)

Just so you know, measured melting point for "COc1cc2ncc(N[C@@H]3C[C@H]4CC[C@@H]3C4)nc2cc1OC" came out at 184 to 186 °C

Data point: COc1cc2ncc(OC3CCC(OC(=O)N(C)C)CC3)nc2cc1OC (centres unmarked) ; melting point = 152 to 155 °C

Entry COc1cc2ncc(OC3CC4CC3C(O)C4O)nc2cc1OC (centres unmarked) ; melting point = 85 to 88 °C

// recorded melting point for "Oc1ccc2nc(Nc3ccccc3)cnc2c1" : 211 to 213 °C

Looking up "COc1cc2cc(NCC(C)(C)CO)cnc2cc1OC" , I see its melting point listed as 170 to 173.5 °C
